Please provide measured surface tension liquid-gas for the entries that follow.
# SETTINGS: 308.15 K, Wilhelmy plate method
Answers are plain numbers, in mN/m.

The cases that follow already have their surface tension liquid-gas on record.
MOLECULE	MEASUREMENT_UNIT	REPORTED_VALUE
CCCCCCCCCO	mN/m	25.49
CCCCCCCCCCO	mN/m	26.23
CN(C)C=O [dimethylformamide]	mN/m	33

Moving on to another molecule below.
Entry CCCCCCCCO — recorded surface tension liquid-gas = 25.41

----------
# SETTINGS: 313.15 K, Wilhelmy plate method
Please provide measured surface tension liquid-gas for the entries that follow.
Numbers only, in mN/m.

COMPOUND	surface tension liquid-gas, mN/m
CCCCCCCCCO	24.44
CCCCCCCCO	24.38
CCCCCCCCCCO	25.17

Moving on to another compound below.
Entry CN(C)C=O [dimethylformamide] — recorded surface tension liquid-gas = 32

----------
Please provide measured surface tension liquid-gas for the entries that follow.
# SETTINGS: 298.15 K, Wilhelmy plate method
One number for each entry, in mN/m.

The cases that follow already have their surface tension liquid-gas on record.
COMPOUND	ENDPOINT	MEASUREMENT_UNIT	REPORTED_VALUE
CN(C)C=O [dimethylformamide]	surface tension liquid-gas	mN/m	35.2
CCCCCCCCCO	surface tension liquid-gas	mN/m	27.58
CCCCCCCCO	surface tension liquid-gas	mN/m	27.47

Entry CCCCCCCCCCO — recorded surface tension liquid-gas = 28.35

----------
Please provide measured viscosity for the entries that follow.
# SETTINGS: 308.15 K; 101.3 kPa; Liquid; Concentric cylinders viscometry
One number for each entry, in mPa·s.

The cases that follow already have their viscosity on record.
COMPOUND	REPORTED_VALUE
CCCCCCCCCCO [decan-1-ol]	8.135
CCCCCCCCO [octan-1-ol]	5.425
CCCCCCCCCO [nonan-1-ol]	6.664

Moving on to another compound below.
Entry CN(C)C=O [dimethylformamide] — recorded viscosity = 0.7262

----------
Please provide measured surface tension liquid-gas for the entries that follow.
# SETTINGS: 303.15 K, Wilhelmy plate method
Answers are plain numbers, in mN/m.

The cases that follow already have their surface tension liquid-gas on record.
MOLECULE	surface tension liquid-gas / mN/m
CCCCCCCCCO	26.53
CCCCCCCCCCO	27.29

Working through the 2 molecules below one at a time, give surface tension liquid-gas for each.
1. CN(C)C=O [dimethylformamide]
2. CCCCCCCCO

[reply]
1. 34.1
2. 26.42

----------
# SETTINGS: 298.15 K; 101.3 kPa; Liquid; Concentric cylinders viscometry
ENDPOINT: viscosity (mPa·s)
Answers are plain numbers, in mPa·s.

COMPOUND	REPORTED_VALUE
CCCCCCCCO [octan-1-ol]	7.661
CCCCCCCCCCO [decan-1-ol]	11.83
CCCCCCCCCO [nonan-1-ol]	9.715

Moving on to another compound below.
Entry CN(C)C=O [dimethylformamide] — recorded viscosity = 0.8162

----------
Please provide measured refractive index for the entries that follow.
# TEST_DESCRIPTION: refractive index (Na D-line) (dimensionless)
# SETTINGS: 293.15 K; 101.33 kPa; Liquid; Standard Abbe refractometry
One number for each entry.

COMPOUND	refractive index
CCCCCCCCCO [nonan-1-ol]	1.433
CN(C)C=O [dimethylformamide]	1.429
CCCCCCCCCCO [decan-1-ol]	1.437

Moving on to another compound below.
Entry CCCCCCCCO [octan-1-ol] — recorded refractive index = 1.429
